- System under test: T1, BMPRIb receptor-Fc fusion (UniProt O00238 14-126)
- T1 construct: BMP receptor-Fc fusion used at 5 ug/mL; also called ALK-6
- T1 sequence (looked up): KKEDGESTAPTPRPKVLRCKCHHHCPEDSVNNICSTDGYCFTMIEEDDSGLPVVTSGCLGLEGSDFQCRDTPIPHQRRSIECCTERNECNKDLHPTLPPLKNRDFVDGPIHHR
- Assay protocol: ELISA-like plate assay, captured BMP-7 from conditioned media, receptor-Fc detection
Assay metric: BMPRIb binding (relative to wild type = 1.0)

* BMP-7 variant F117R (ligand, In conditioned media; numbering on mature BMP-7) STGGKQRSQNRSKTPKNQEALRMASVAENSSSDQRQACKKHELYVSFRDLGWQDWIIAPEGYAAYYCEGECAFPLNSYMNATNHAIVQTLVHFINPETVPKPCCAPTQLNAISVLYRDDSSNVILKKYRNMVVRACGCH | 0.71 relative to wild type

BMPRIb binding (relative to wild type = 1.0) in this record for BMP-7 variant L21N (ligand, In conditioned media; numbering on mature BMP-7) STGGKQRSQNRSKTPKNQEANRMASVAENSSSDQRQACKKHELYVSFRDLGWQDWIIAPEGYAAYYCEGECAFPLNSYMNATNHAIVQTLVHFINPETVPKPCCAPTQLNAISVLYFDDSSNVILKKYRNMVVRACGCH : 2.81 relative to wild type
